- system.tested: Complement component 3 (C3) (Homo sapiens) (UniProt P01024+P01024)
- Sequence (P01024 23-667, chain 1 of 2): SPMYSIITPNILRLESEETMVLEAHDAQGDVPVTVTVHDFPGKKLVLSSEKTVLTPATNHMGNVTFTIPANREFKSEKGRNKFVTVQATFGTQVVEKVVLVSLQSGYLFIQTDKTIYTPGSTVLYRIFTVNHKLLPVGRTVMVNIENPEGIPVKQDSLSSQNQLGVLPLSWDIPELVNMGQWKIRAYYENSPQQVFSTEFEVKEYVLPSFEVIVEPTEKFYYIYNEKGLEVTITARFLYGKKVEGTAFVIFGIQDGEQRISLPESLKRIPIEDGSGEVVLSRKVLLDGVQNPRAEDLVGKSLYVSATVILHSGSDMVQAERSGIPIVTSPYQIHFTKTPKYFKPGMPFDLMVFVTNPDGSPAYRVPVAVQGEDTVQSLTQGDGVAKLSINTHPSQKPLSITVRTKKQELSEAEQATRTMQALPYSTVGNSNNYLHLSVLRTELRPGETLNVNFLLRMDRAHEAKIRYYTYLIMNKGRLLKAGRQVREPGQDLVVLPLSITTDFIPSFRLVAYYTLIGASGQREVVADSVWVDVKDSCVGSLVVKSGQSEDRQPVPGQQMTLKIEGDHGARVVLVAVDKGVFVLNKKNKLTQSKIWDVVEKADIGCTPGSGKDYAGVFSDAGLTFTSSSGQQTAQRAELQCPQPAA
- Sequence (P01024 672-1663, chain 2 of 2): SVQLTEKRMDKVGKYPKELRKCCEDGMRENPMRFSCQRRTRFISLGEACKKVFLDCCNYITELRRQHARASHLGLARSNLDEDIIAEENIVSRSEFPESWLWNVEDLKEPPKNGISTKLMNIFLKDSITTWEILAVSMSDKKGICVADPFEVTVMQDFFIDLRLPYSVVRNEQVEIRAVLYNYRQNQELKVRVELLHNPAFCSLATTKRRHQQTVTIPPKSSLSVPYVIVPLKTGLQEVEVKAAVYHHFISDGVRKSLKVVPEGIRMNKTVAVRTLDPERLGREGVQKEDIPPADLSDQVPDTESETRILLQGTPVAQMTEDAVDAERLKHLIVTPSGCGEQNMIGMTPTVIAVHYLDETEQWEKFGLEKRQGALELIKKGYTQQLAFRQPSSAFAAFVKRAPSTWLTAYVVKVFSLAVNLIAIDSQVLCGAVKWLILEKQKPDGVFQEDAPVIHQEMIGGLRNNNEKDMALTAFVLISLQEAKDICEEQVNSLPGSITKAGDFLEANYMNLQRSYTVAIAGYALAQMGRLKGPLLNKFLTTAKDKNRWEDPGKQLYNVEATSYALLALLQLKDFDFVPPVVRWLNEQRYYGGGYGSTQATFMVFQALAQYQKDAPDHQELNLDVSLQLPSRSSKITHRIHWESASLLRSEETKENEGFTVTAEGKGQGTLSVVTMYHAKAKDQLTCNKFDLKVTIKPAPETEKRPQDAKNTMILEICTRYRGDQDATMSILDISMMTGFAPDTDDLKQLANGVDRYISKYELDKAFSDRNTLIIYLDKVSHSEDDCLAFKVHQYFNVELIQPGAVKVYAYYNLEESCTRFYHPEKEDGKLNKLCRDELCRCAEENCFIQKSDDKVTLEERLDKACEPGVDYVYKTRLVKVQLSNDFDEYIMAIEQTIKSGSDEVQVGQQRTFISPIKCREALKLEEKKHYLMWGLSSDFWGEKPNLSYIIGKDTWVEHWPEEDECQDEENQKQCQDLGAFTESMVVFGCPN
- test.method.notes: filter
- test.settings: P = NapdU (all U); 2'-OMe G2; 3'-3' idT; SB18T0.01, 5 mM MgCl2, 37 C
attribute.measured: pKd
One number for each entry, as −log10 of the molar value.

Look up pKd for this sequence: CGGUGACUCAAUAGUCCGUACGUUCCCG [8491-94_60] 10.27

###

- system.tested: Complement component 3 (C3) (Homo sapiens) (UniProt P01024+P01024)
- test.method.notes: filter
- test.settings: all U = NapdU; 2'-OMe at 1,2,3,5,7,9,10,13,20,22,25-28; 3'-3' idT; SB18T0.01, 37C
attribute.measured: pKd
One number for each entry, as −log10 of the molar value.

# query: pKd of entry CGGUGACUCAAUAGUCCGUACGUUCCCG [8491-94_101] 9.66

###

- system.tested: Complement component 3 (C3) (Homo sapiens) (UniProt P01024+P01024)
- test.method.notes: inhibition
- test.settings: P = NapdU (all U); 2'-OMe at 1,2,3,5,7,9,10,13,19,20,22,23,24,25,26,27,28; 3'-3' idT; hemolysis, 20 nM C3, GVB++, 37 C; C3a release in 34% serum IC50 3 uM
attribute.measured: pIC50
One number for each entry, as −log10 of the molar value.

pIC50 for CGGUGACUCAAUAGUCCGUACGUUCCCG [8491-94_97] ? 7.81

###

- system.tested: Complement component 3 (C3) (Homo sapiens) (UniProt P01024+P01024)
- test.method.notes: filter
- test.settings: all U = NapdU; C3-spacer replaces A7; 3'-3' idT; SB18T0.01, 37C
attribute.measured: Kd
Field note: include the unit after the figure.

Sample CCGGUGCUCAAUAGUCCGUACGUUCCCGG [8491-94_35] — what was its Kd? 5.67 nM

###

- system.tested: Complement component 3 (C3) (Homo sapiens) (UniProt P01024+P01024)
- test.method.notes: filter
- test.settings: all U = NapdU; 3'-3' idT; SB18T0.01, 37C
attribute.measured: Kd (nM)
Numbers only, in nM.

* ACTCCCCGGUGACUCAAUAGUCCGUACGUUCCCGGUCCGAA [8491-94_6] | 0.019
* ACTCCCCGGUGACUCAAUAGUCCGUACGUU [8491-94_21] | 0.249
* CCCCGGUGACUCAAUAGUCCGUACGUUCCCGGUCCGAACGCGGAGGA [8491-94_8] | 0.0369

Provide Kd for all items below, preserving their order.
1. CCGGUGACUCAAUAGUCCGUACGUUCCCG [8491-94_27]
2. ACTCCCCGGUGACUCAAUAGUCCGUACGUUCC [8491-94_20]
3. CGGUGACUCAAUAGUCCGUACGUUCCCGG [8491-94_29]
4. UGACUCAAUAGUCCGUACGUUCCCGGUCCGAACGCGGAGGA [8491-94_10]
5. CGGUGACUCAAUAGUCCGUACGUUCCCGGUCCGAACGCGGAGGA [8491-94_9]
6. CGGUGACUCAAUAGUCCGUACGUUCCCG [8491-94_53]
7. ACTCCCCGGUGACUCAAUAGUCCGUACGUUCCCGGUCC [8491-94_7]

1. 0.0658
2. 1.14
3. 0.0581
4. 7.6
5. 0.243
6. 0.0334
7. 0.0194

Dear colleague, could you please provide Kd for the sequences listed below?
1. CGGUGACUCAAUAGUCCGUACGUUCCG [8491-94_87]
2. CCCCGGUGACUCAAUAGUCCGUACGUUCCCGG [8491-94_25]
3. ACTCCCCGGUGACUCAAUAGUCCGUACGUUCCCGGUCCGAACGCGGA [8491-94_4]
4. CCGGUGACUCAAUAGUCCGUACGUUCCCGGUCCGAACGCGGAGGA [8491-94_23]

1. 0.154
2. 0.0928
3. 0.0291
4. 0.0621

###

- system.tested: Complement component 3 (C3) (Homo sapiens) (UniProt P01024+P01024)
- test.method.notes: filter
- test.settings: P = NapdU (all U); 2'-OMe P4; 3'-3' idT; SB18T0.01, 5 mM MgCl2, 37 C
attribute.measured: Kd (nM)
One number for each entry, in nM.

Request the reported Kd associated with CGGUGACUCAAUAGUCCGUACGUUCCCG [8491-94_62] 0.0918

###

- system.tested: Complement component 3 (C3) (Homo sapiens) (UniProt P01024+P01024)
- test.method.notes: filter
- test.settings: all U = NapdU; C3-spacer replaces C7, C17, C25; 3'-3' idT; SB18T0.01, 37C
attribute.measured: pKd
Give bare numbers, as −log10 of the molar value.

Which pKd reading was recorded for the sequence CGGUGAUCAAUAGUCGUACGUUCCG [8491-94_54] ? 10.66

###

- system.tested: Complement component 3 (C3) (Homo sapiens) (UniProt P01024+P01024)
- test.method.notes: filter
- test.settings: all U = NapdU; 3'-3' idT; printed as 2.65-10; SB18T0.01, 37C
attribute.measured: Kd (nM)
Give bare numbers, in nM.

Reported Kd, sequence CCGGUGACUCAAUAGUCCGUACGUUCCC [8491-94_28] : ____ 0.265

###

- system.tested: Complement component 3 (C3) (Homo sapiens) (UniProt P01024+P01024)
- test.method.notes: filter
- test.settings: all U = NapdU; 2'-OMe at G14; 3'-3' idT; SB18T0.01, 37C
attribute.measured: Kd (nM)
Numbers only, in nM.

Return reported Kd; argument: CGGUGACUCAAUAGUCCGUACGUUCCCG [8491-94_72] 6.17

###

- system.tested: Complement component 3 (C3) (Homo sapiens) (UniProt P01024+P01024)
- test.method.notes: filter
- test.settings: all U = NapdU; hexaethylene glycol (Heg) replaces C9-A10-A11; 3'-3' idT; SB18T0.01, 37C
attribute.measured: pKd
Answers are plain numbers, as −log10 of the molar value.

Form field: reported pKd of CGGUGACUUAGUCCGUACGUUCCCG [8491-94_57] 9.61

###

- system.tested: Complement component 3 (C3) (Homo sapiens) (UniProt P01024+P01024)
- test.method.notes: filter
- test.settings: all P = NapdU, T = dT; 2'-OMe at 1,2,3,5,7,9,10,13,19,20,22-28; 3'-3' idT; SB18T0.01, 37C
attribute.measured: pKd
Numbers only, as −log10 of the molar value.

I'd like to know its pKd. The sequence in question is CGGUGACUCAAUAGUCCGUATGUUCCCG [8491-94_132] 7.90

###

- system.tested: Complement component 3 (C3) (Homo sapiens) (UniProt P01024+P01024)
- test.method.notes: filter
- test.settings: all U = NapdU; 2'-OMe at 1,2,3,5,7,10,13,19,20,23-28; 3'-3' idT; SB18T0.01, 37C
attribute.measured: Kd (nM)
One number for each entry, in nM.

I have this sequence here, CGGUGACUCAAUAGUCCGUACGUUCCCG [8491-94_95] , and I need its recorded Kd. 0.0357

###

- system.tested: Complement component 3 (C3) (Homo sapiens) (UniProt P01024+P01024)
- test.method.notes: filter
- test.settings: all U in listing = NapdU; 3'-3' idT; SB18T0.01, 37C
Task for the reader: assign each of the following sequences its reported Kd.
Numbers only, in nM.

Use the examples below as a reference point.
• ACTCCAGACUGUAGUUGACUCCAUAGUCCGUACGUUUACACAUUGGAGGA [8491-189_3] = 0.0335
• ACTCCCAAGCCUCUCGGUUUGGCUAAAUAGUCCGUACGUUUUCACGAGGA [8491-408_3] = 0.161
• ACTCCUCCCUUUGGCUCGAUAGUCGGUACGUUUUGGGGAGGCGUGGAGGA [8491-409_3] = 0.316
• ACTCCGAGCAUUGACUCAAUAGUCCGUACGUUCCCGGUCUGAACGUGGAGGA [8491-406_3] = 2.47
• ACTCCAGCAACUUGACUCAAUAGUCCGUACGUUUAUGCGAGAACAGAGGA [8491-386_3] = 0.104

Please state, for each entry, its recorded Kd.
1. ACTCCGAGCAUUGACUCAAUAGUCCGUACGUUUGGCCCGUUCACAAGGAGGA [8491-393_3]
2. ACTCCUACGGUUGGCUCCAUAGUCAGUACGUUUACGAUACCCCGAGGA [8491-282_3]
3. ACTCCAUGUCGGCGUUUGACUCAAUAGUCCGUACGUUUGGCCGGGCAGGGGAGGA [8491-405_3]
4. ACTCCGAGCUUUUUUGACUCAAUUAGUCCGUACGUUUUUUGGCCGGGCAGGGGAGGA [8491-404_3]
5. ACTCCCUAACACGGCCGAGUUGACUCCCAUAGUCCGUACGUUUGCGAGGA [8491-387_3]
6. ACTCCUUGACUCGAUAGUCCGUACGUUUGCGGAAUACCAGCUGACGAGGA [8491-400_3]
7. ACTCCCUAUGAGGGCUGAUUCAAUAGUCAGUACGUUCGCCCCAUCGAGGA [8491-399_3]
8. ACTCCUACAAAGCGAUUGGCUCGAUAGUCAGUACGUUUCUCGCUCGAGGA [8491-390_3]

0.25
0.27
0.159
0.185
0.519
1.2
8.61
0.412

Give me Kd for each of these sequences, listed below.
1. ACTCCUGUUGACUCACAUAGUCCGUACGUUUACGGCAAUAGCACAGAGGA [8491-396_3]
2. ACTCCCCGGUGACUCAAUAGUCCGUACGUUUGGCCGGGCAGGGGAGGA [8491-395_3]
3. ACTCCCUUAAAAGGGUCGUUGACUCCAUAGUCCGUACGUUUCCGAGAGGA [8491-394_3]

0.311
3.52
0.448

All figures here come from patent US20170166895.
